Attribution: patent US20240024346A1

ASSAY SYSTEM: Recombinant human 5′-nucleotidase (hCD73) (Homo sapiens)
Sequence (P21589 27-549): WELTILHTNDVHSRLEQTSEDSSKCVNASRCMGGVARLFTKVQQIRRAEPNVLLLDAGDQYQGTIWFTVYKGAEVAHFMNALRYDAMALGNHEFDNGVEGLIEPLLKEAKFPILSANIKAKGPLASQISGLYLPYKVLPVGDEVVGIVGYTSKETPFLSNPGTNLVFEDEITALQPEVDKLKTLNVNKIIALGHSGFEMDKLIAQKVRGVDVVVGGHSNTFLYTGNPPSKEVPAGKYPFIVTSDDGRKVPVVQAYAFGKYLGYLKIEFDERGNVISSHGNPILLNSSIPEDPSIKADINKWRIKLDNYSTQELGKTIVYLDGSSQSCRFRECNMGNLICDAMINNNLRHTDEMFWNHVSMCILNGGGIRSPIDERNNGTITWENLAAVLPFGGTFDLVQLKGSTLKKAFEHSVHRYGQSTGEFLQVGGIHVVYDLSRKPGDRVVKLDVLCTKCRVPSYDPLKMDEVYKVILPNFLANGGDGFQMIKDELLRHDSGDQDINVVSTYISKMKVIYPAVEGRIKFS
EXPERIMENTAL DETAILS: CD73 enzyme inhibition assay (recombinant hCD73, AMP substrate, phosphate detection)
MEASUREMENT CONTEXT: 37° C. 20 min, absorbance 635 nm
pIC50: −log10 of the molar value.

{"COMPOUND": "O=P(O)(O)CP(=O)(O)OC[C@H]1O[C@@H](n2cnc3c(N4CC(c5ccccc5)(c5ccccc5)C4)nc(Cl)nc32)C(O)C1O (stereo partly drawn)", "pIC50": 8.86}
{"COMPOUND": "O=P(O)(O)CP(=O)(O)OC[C@H]1O[C@@H](n2cnc3c(N4CCC5(CC4)Cc4ccccc4C5)nc(Cl)nc32)[C@@H](O)C1O (stereo partly drawn)", "pIC50": 8.85}
{"COMPOUND": "O=P(O)(O)CP(=O)(O)OC[C@H]1O[C@@H](n2cnc3c(N4CC5(CCCC5)c5ccccc54)nc(Cl)nc32)[C@@H](O)C1O (stereo partly drawn)", "pIC50": 8.82}
{"COMPOUND": "O=P(O)(O)CP(=O)(O)OC[C@H]1O[C@@H](n2cnc3c(N4CC5(CCC5)c5ccccc54)nc(Cl)nc32)[C@@H](O)C1O (stereo partly drawn)", "pIC50": 8.89}
{"COMPOUND": "O=P(O)(O)CP(=O)(O)OC[C@H]1O[C@@H](n2cnc3c(N4CC5(Cc6ccccc6C5)C4)nc(Cl)nc32)[C@@H](O)C1O (stereo partly drawn)", "pIC50": 9.14}
{"COMPOUND": "O=P(O)(O)CP(=O)(O)OC[C@H]1O[C@@H](n2cnc3c(N4CC(c5ccccc5)C(c5ccccc5)C4)nc(Cl)nc32)C(O)C1O (stereo partly drawn)", "pIC50": 8.73}
